The reported numbers originate from PubChem BioAssay.

Provide the reported z-score of each item.
protocol-description: S. cerevisiae RM11-1a growth modifiers, primary screen, strain RM11-1a, OD600, basal, 24 h (AID 1177);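 further: cultures grown under basal conditions with no added stressor; test concentration not given here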
protocol-conditions: OD600, 24 h, higher = more signal, called active from +8 up or from −8 down
One number for each entry.

Worked cases, answers included:
Cn1c(=O)n2n(c1=O)[C@H]1[C@H](O)[C@@H]3O[C@@H]3C(=NOC[C@@H](O)COCc3ccco3)[C@H]1CC2 | -0.17
O=C1C[C@]2(c3ccc([N+](=O)[O-])cc3)C(=O)N(CCN3CCOCC3)c3cc(CO)ccc3[C@H]2N1CC12CC3CC(CC(C3)C1)C2 | -0.028

Let us move to another entry and its z-score.
z-score recorded for this compound, COc1ccc([Si](C)(C)[C@H]2[C@H](CC(=O)N3CCC[C@H]3CO)O[C@@]3(C(=O)N(Cc4cccc(N5C(=O)COc6ccccc65)c4)c4ccccc43)[C@@H]2C)cc1 , is -1.74

###

protocol-description: basal MM1S mitochondrial membrane potential changes, profiling panel, cell-based, JC-1 fluorescence, 24 h, 100 nL compound (AID 1170); further: test concentration not given here
protocol-conditions: higher = more signal
Everything with z-score lower than -0.9 is false (0); everything else, including exactly -0.9, is true (1).

Answered examples (5):
CCOC(=O)CCN1C(=O)[C@H]2[C@H]3[C@H](O)[C@H](O)CC(=O)[C@H]3CC[C@H]2C1=O | false (0)
CCOC(=O)C[C@H]1[C@H](OC(=O)c2cc3ccccc3oc2=O)[C@@H](NC(=O)c2ccc3ccccc3n2)c2cc(OCCCO)ccc2N1C(=O)c1ccccc1 | true (1)
O=C(NN=C1C[C@@H](O)[C@@H](O)[C@@H]2[C@@H]3C(=O)N(c4cccc(Oc5ccccc5)c4)C(=O)[C@@H]3CC[C@@H]12)OCc1ccccc1 | true (1)
COC(=O)CC=C[C@H](C)[C@H](CO)NS(=O)(=O)c1ccc(C)cc1 | true (1)
CC(=O)OC[C@H]1O[C@H](C#CCCCc2ccccc2)C=C[C@@H]1OC(C)=O | false (0)

input: Kindly determine if z-score recorded for O=C1C2C=CC(C(O)c3ccc([N+](=O)[O-])cc3)N(Nc3ccc([N+](=O)[O-])cc3)C2C(=O)N1c1ccccc1 (stereo not given) is above or exactly -0.9.
output: false (0)

input: Could you verify whether the entry COCCOC(=O)N1C(=O)[C@@]2(c3cc(C#Cc4ccc(OC)cc4)ccc31)[C@H](c1ccc(O)cc1)N1[C@H](c3ccccc3)[C@H](c3ccccc3)OC(=O)[C@H]1[C@@H]2C(N)=O shows z-score of no less than -0.9?
output: true (1)

input: Is z-score for CO[C@H]1COC(=O)[C@H](C)NC(=O)[C@@H](C)COC(=O)CC=C[C@@H]1C at or above -0.9?
output: true (1)

input: # bool: z-score of CO[C@@H]1COC(=O)CC=C[C@@H](C)[C@H](OC)COC(=O)[C@H](COCc2ccccc2)NC(=O)CC=C[C@H]1C >= -0.9
output: true (1)

input: Is z-score for COc1ccc([Si](C)(C)[C@H]2[C@H](CC(=O)N3CCC[C@H]3CO)O[C@@]3(C(=O)N(Cc4cccc(N5C(=O)COc6ccccc65)c4)c4ccccc43)[C@@H]2C)cc1 at or above -0.9?
output: true (1)

input: Evaluate CC(C)(C)N1CC=CC23O[C@@H]4C=CCCOC(=O)C4[C@H]2C(=O)N(CCCCCO)[C@@H]3C1=O (stereo not given in full) : z-score at minimum -0.9?
output: true (1)

input: Quick check, z-score >= -0.9? CC(C)N1CC=CC23O[C@@H]4C=CCCOC(=O)C4[C@H]2C(=O)N(CCCCCCO)[C@@H]3C1=O (stereo not given in full)
output: true (1)

input: Exam item: decide whether the reported z-score for [N-]=[N+]=Nc1ccccc1C[C@@]1(C(N)=O)N=C(c2ccc(OCCCO)cc2)O[C@@H]1c1ccccc1 is at least -0.9.
output: false (0)

input: Confirm if z-score reported for the compound CCc1cc2c(nc1CC)CCN(CCC(C)=NOC(C)CN1CCCc3nc(C)c(C)cc31)C2 (stereo not given) is -0.9 or above.
output: true (1)

###

protocol-description: small-molecule microarray binders of probe aXIP, primary screen, biochemical, NeuroSMM set, 635/667 nm fluorescence (AID 1119);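 further: probe is the protein aXip251-270 applied at 1 µg/mL to compound-printed slides; binding of probe to printed compounds measured as 667 nm fluorescence plus signal to noise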
protocol-conditions: higher = more signal, called active from +8 up or from −8 down
Assignment: determine reported composite Z-score for the given molecules.
Answers are plain numbers.

CS(=O)(=O)CCOC(=O)C1=CC(CCCO)=CC(c2cccs2)N(Cc2cccc(OC(F)(F)F)c2)C=C1C(=O)OCCS(C)(=O)=O (stereo unspecified) | 0.0987
COC(=O)[C@@H]1CCCN1C(=O)[C@@H](C)CO | -0.505
O=C1[C@H]2[C@H]3[C@H](O)[C@H](O)CC(=NOC[C@@H](O)COCc4ccco4)[C@H]3CC[C@H]2C(=O)N1Cc1ccc2c(c1)OCO2 | -0.377

Below is a list of molecules. For each, state its recorded composite Z-score.
1. CC1(C)OCC(C(O)C2=CCCCC2=O)CO1 (stereo unspecified)
2. CO[C@@H]1COC(=O)CC=C[C@@H](C)[C@@H]2C=C[C@H](O)[C@@H](COC(=O)[C@H](C)NC(=O)CC=C[C@H]1C)O2
3. O=C1C2C=CC(C(O)c3ccc([N+](=O)[O-])cc3)N(Nc3ccc([N+](=O)[O-])cc3)C2C(=O)N1c1ccccc1 (stereo unspecified)
4. COCCCNC(=O)[C@]1(Cc2ccccc2)N=C(c2ccc(OCCCO)cc2)O[C@@H]1c1ccccc1
5. CCCNC(=O)OC[C@H]1O[C@H](CCON=C2[C@H]3CCn4c(=O)n(-c5ccccc5)c(=O)n4[C@H]3[C@H](O)[C@@H]3O[C@H]23)C=C[C@@H]1Oc1ccc(OC)cc1
6. CO[C@H]1O[C@H](CO)[C@@H](OC(=O)Nc2ccc3c(c2)OCO3)[C@H](OC(=O)Nc2ccccc2-c2ccccc2)[C@@H]1OC(=O)Nc1ccccc1-c1ccccc1

output:
1. 0.0887
2. 0.581
3. 0.373
4. 0.12
5. 2.63
6. 0.558

###

protocol-description: osmotic lysis modulators in infected erythrocytes, primary screen, PSAC antagonist project, cell-based, P. falciparum Indochina, OD700, 3 h (AID 1156)
protocol-conditions: higher = more signal, called active from +8 up or from −8 down
Kindly return condition met if reported z-score is no lower than -0.3; return condition not met if it is lower.

input: State whether the measured z-score reaches -0.3, counting equality as reaching it, for CCOC(=O)[C@H](Cc1ccccc1)NC(=O)CCC1CC(OC(=O)NCCc2ccc(F)cc2)CC2(CCCC(COC(=O)NCC(c3ccccc3)c3ccccc3)O2)O1 (stereo not given in full)
output: condition met

input: Say whether CCCC[C@H]1OB(O)C[C@H]2C1=C(C)C[C@H]1C(=O)N(C)C(=O)[C@H]12 shows z-score of -0.3 or more.
output: condition not met

input: Given the entry Cc1cc(C)c(-c2cc([C@H](C)ON=C3[C@H]4CCn5c(=O)n(-c6ccccc6)c(=O)n5[C@H]4[C@H](O)[C@@H]4O[C@H]34)on2)c(C)c1 , answer whether its z-score meets or surpasses -0.3.
output: condition met

input: Say whether CCOC(=O)NN=C1C[C@@H](O)[C@@H](O)[C@@H]2[C@@H]3C(=O)N(CC)C(=O)[C@@H]3CC[C@@H]12 shows z-score of -0.3 or more.
output: condition not met

input: Threshold query (z-score >= -0.3) on C#CCCCON=C1C[C@@H](O)[C@@H](O)[C@@H]2[C@@H]3C(=O)N(Cc4ccccc4)C(=O)[C@@H]3CC[C@H]12
output: condition met

###

Hi there, I'd appreciate the recorded z-score for every entry that follows.
protocol-description: basal RPMI8226 viability, no added stimulus, profiling panel, cell-based, calcein-AM fluorescence, 48 h, PK04 Diversity Set (AID 1166);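 further: cells grown under basal conditions without added stimulus; test concentration not given here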
protocol-conditions: RPMI8226 myeloma viability, higher = more signal
Numbers only.

Cc1ccc(S[C@]2(C(=O)O)CC(=O)N(Cc3ccccc3)[C@@H]2c2ccc(CO)cc2I)cc1 | -2.03
CCN1C(=O)[C@H]2[C@H]3[C@H](O)[C@H](O)CC(=NOC(C)CN4CCCCc5nc(C)c(C)cc54)[C@@H]3CC[C@H]2C1=O (some centres undefined) | 0.173
C=CC[C@@H]1C=C[C@H](ON=C[C@@H](OC)[C@H](C)C=CCC(=O)OC)[C@@H](CO)O1 | -0.939

# per-item lookup of z-score; items listed below
1. COCCCNC(=O)[C@]1(Cc2ccccc2)N=C(c2ccc(OCCCO)cc2)O[C@@H]1c1ccccc1
2. O=C1O[C@@H](c2ccccc2)[C@@H](c2ccccc2)N2[C@@H](c3ccc(O)cc3)[C@]3(C(=O)Nc4ccccc43)[C@@H](C(=O)O)[C@H]12
3. C=CCOC(=O)[C@H]1[C@@H]2C(=O)O[C@@H](c3ccccc3)[C@@H](c3ccccc3)N2[C@@H](c2ccc(OCCOC(=O)[C@H]3C[C@H]4C(=O)N[C@@H](Cc5ccccc5)C(=O)N4[C@H]3c3ccc(O)cc3)cc2)[C@]12C(=O)Nc1ccccc12
4. CC(C)C[C@@H]1NC(=O)[C@H]2C[C@@H](C(=O)O)[C@@H](c3ccc(O)cc3)N2C1=O
5. CC(CCC(=O)OC[C@H]1O[C@H](C#Cc2ccccc2)C=C[C@@H]1Oc1ccc(C)cc1)=NOC[C@@H](O)COCc1ccco1

output:
[-0.701, -1.03, -0.216, 0.25, -2.27]

Value sought for every listed compound: z-score.
1. [N-]=[N+]=NCc1ccccc1C[C@]1(C(=O)NCc2ccccc2)N=C(c2ccc(OCCCO)cc2)O[C@H]1c1ccccc1N=[N+]=[N-]
2. COc1ccc(O[C@H]2C=C[C@@H](c3ccccc3)O[C@@H]2COC(=O)CCC(C)=NO[C@H](C)c2cn([C@@H]3COC[C@H]3O)nn2)cc1
3. COc1ccc(O[C@@H]2[C@H](O)CO[C@H]2C=CC#Cc2ccccc2)cc1
4. C#CCCCON=C1C[C@@H](O)[C@@H](O)[C@@H]2[C@@H]3C(=O)N([C@@H](C)c4ccccc4)C(=O)[C@@H]3CC[C@H]12
5. O=C1[C@H]2[C@H]3[C@H](O)[C@H](O)CC(=NO[C@@H]4O[C@H](CO)[C@@H](O)[C@H](O)[C@H]4O)[C@@H]3CC[C@H]2C(=O)N1Cc1ccc2c(c1)OCO2
6. O=C1CCCC=C1C(O)CCOCc1ccccc1 (centres undefined)

output:
1. -4.24
2. -1.22
3. -0.0849
4. -1.39
5. -1.06
6. 0.452
